Below is a list of entries, each paired with its recorded EC50 value.
measured target: T1, recombinant human CTLA4-Fc (human, UniProt P16410 36-162)
T1 construct: also called human CTLA4 fused with human FC fragment; CTLA4-Fc (Sino Biological, 11159-H03H)
T1 sequence (looked up): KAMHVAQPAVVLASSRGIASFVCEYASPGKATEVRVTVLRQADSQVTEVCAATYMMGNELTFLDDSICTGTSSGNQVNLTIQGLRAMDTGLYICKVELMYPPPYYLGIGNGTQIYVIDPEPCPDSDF
assay: ELISA, coated human CTLA4-Fc (as in Example 8)
Please state the figure in nM; there is no need to write the unit.

[[record]]
binder = "TY22402 (antibody, IgG1, V domains shown, IgG1; peptide fused to the N-terminus of the light chain of TY21580) VH: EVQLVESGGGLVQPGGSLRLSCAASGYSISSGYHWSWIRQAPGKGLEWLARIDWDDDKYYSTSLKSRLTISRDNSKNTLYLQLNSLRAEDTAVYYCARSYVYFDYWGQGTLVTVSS VL: EVGSYIVHHSDCDAFYPYCDSSGRSAGGGGSPLGLAGSGGSDIQLTQSPSSLSASVGDRVTITCRASQSVRGRFLAWYQQKPGKAPKLLIYDASNRATGIPSRFSGSGSGTDFTLTISSLQPEDFATYYCQQSSSWPPTFGQGTKVEIKR"
unit_string = "nM"
readout_value = 54


// fetch EC50 given entry TY22776 (antibody, V domains shown) VH: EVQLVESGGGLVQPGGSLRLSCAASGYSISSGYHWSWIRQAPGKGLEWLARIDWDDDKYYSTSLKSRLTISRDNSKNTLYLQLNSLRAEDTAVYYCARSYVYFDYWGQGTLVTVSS VL: EVGSSDCVPYYYACAYSGRSAGGGGTPLGLAGSGGSDIQLTQSPSSLSASVGDRVTITCRASQSVRGRFLAWYQQKPGKAPKLLIYDASNRATGIPSRFSGSGSGTDFTLTISSLQPEDFATYYCQQSSSWPPTFGQGTKVEIKR 65.9

Please report the measured EC50 for TY22404 (antibody, IgG1, V domains shown, IgG1; peptide fused to the N-terminus of the light chain of TY21580) VH: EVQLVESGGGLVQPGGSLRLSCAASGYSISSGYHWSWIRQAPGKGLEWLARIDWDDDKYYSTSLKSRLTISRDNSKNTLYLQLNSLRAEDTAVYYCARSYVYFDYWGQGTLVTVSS VL: EVGSYPNPSSDCVPYYYACAYSGRSAGGGGSPLGLAGSGGSDIQLTQSPSSLSASVGDRVTITCRASQSVRGRFLAWYQQKPGKAPKLLIYDASNRATGIPSRFSGSGSGTDFTLTISSLQPEDFATYYCQQSSSWPPTFGQGTKVEIKR 68.4

Please give the documented EC50 of TY22775 (antibody, V domains shown) VH: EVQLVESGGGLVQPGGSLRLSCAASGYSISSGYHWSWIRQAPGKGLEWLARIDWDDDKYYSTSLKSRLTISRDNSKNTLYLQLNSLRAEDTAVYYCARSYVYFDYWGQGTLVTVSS VL: EVGHSDCDAFYPYCDSSGRSAGGGGTPLGLAGSGGSDIQLTQSPSSLSASVGDRVTITCRASQSVRGRFLAWYQQKPGKAPKLLIYDASNRATGIPSRFSGSGSGTDFTLTISSLQPEDFATYYCQQSSSWPPTFGQGTKVEIKR 37.3
